experimental-system: T1, V domain of human CD33 (human, UniProt P20138 18-139, limits assumed)
T1 construct: recombinant, fully glycosylated V domain; also called Human CD33 V domain
assay-procedure: SPR, Fab captured, 37C;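 further: biacore 8K surface plasmon resonance with Fabs held on an amine-coupled anti-Fab antibody surface, soluble monomeric CD33 domain injected as analyte, double-referenced 1:1 binding fit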
reported-endpoint: Kd (nM)

binder	result-value
ADI-10159 Fab (Fab, V domains shown, Fab fragment; also called Ab1; G59) VH: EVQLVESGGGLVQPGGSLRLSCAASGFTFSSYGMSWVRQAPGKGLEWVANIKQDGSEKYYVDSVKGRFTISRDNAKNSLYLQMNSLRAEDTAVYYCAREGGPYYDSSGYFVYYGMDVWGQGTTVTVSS VL: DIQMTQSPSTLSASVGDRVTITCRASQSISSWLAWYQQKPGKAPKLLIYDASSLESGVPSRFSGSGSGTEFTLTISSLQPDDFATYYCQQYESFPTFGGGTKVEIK	5.56
ADI-11826 Fab (Fab, V domains shown, Fab fragment; also called Ab26) VH: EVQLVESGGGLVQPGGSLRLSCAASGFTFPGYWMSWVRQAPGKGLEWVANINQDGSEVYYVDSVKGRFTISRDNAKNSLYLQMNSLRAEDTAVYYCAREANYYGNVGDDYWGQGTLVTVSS VL: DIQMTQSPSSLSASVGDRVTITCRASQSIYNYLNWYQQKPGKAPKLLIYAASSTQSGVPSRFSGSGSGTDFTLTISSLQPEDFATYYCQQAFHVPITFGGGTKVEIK	4.38
ADI-10157 Fab (Fab, V domains shown, Fab fragment; also called Ab13) VH: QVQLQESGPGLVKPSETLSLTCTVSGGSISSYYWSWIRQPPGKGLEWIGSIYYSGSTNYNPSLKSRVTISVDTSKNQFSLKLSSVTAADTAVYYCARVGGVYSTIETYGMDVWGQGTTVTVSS VL: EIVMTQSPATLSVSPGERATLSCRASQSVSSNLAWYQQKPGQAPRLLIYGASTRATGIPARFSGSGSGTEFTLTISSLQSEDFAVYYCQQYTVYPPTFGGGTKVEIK	134
